- Test system: 885724-159-R-J1-PDC KRAS PDC multicell spheroid viability;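 note: spheroids exposed to agents for 7 days before readout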
- testProtocol: Anticancer human tumor 885724-159-R-J1-PDC patient-derived pancreatic adenocarcinoma cell line growth inhibition [KRAS2]
- conditionDescription: second compound 1 µM; first compound 10 µM; stronger effect = lower value
Could you please mark True for values of viability, T/C below 50% and False for values at or above it?

Confirm or reject: viability, T/C of COc1cc(Nc2ncc3c(n2)-c2ccc(Cl)cc2C(c2c(F)cccc2OC)=NC3)ccc1C(=O)O + COc1cc2nc(C)nc(NC(C)c3cc(N)cc(C(F)(F)F)c3)c2cc1OC1CCOC1 lies strictly below 50%
False

Confirm or reject: viability, T/C of COC(=O)c1ccc2c(C(=Nc3ccc(N(C)C(=O)CN4CCN(C)CC4)cc3)c3ccccc3)c(O)[nH]c2c1 + COc1cc2nc(C)nc(NC(C)c3cc(N)cc(C(F)(F)F)c3)c2cc1OC1CCOC1 lies strictly below 50%
True

Confirm or reject: viability, T/C of CCNC(=O)CC1N=C(c2ccc(Cl)cc2)c2cc(OC)ccc2-n2c(C)nnc21 (stereo unspecified) + C=CC(=O)N1CCN(c2nc(=O)n(-c3c(C)ccnc3C(C)C)c3nc(-c4c(O)cccc4F)c(F)cc23)C(C)C1 lies strictly below 50%
False

Confirm or reject: viability, T/C of Cn1nccc1Nc1nccc(-c2cc3c(s2)C(C)(C)N(CCN2CCOCC2)C3=O)n1 + C=CC(=O)N1CCN(c2nc(OCC3CCCN3C)nc3c2CCN(c2cccc4cccc(C)c24)C3)CC1CC#N lies strictly below 50%
True
